SYSTEM UNDER TEST: Recombinant KLK2 (Homo sapiens, UniProt P20151)
Construct: made in house; host or cells: baculovirus-insect cell line system
Sequence (P20151 25-261): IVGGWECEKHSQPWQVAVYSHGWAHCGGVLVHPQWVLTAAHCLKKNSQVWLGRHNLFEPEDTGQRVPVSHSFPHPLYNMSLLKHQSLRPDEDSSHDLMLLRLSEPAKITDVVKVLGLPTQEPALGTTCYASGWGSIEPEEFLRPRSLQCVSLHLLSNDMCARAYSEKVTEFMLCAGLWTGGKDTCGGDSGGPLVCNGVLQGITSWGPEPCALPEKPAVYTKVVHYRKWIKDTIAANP
ASSAY EXPLANATION: Hydrolysis of FRET peptides by recombinant KLK2 (kinetic parameters)
Format: biochemical
CONDITION CONTEXT: pH 8.0, 20 mM Tris–HCl, 1 M sodium citrate, 37 °C, KLK2 1.6 nM; three enzymatic reactions, standard errors 5% or less
Non-standard residues stand in square brackets, D forms with d. No end group written: not given here. *: point of attachment. EDDnp = O=[N+]([O-])c1ccc(NCCN*)c([N+](=O)[O-])c1; 2Abz = Nc1ccccc1C(=O)O
Would you please tag the item rule met when its kcat is 8 s^–1 or above, and rule not met when it is below?

>>> assigned_label("Abz-KLRXSKQ-EDDnp, X = N: FRET peptide, S1’ series, X = N ([2Abz]KLRNSKQ-EDDnp)")
"rule met"
>>> assigned_label("Abz-KXRSSKQ-EDDnp, X = Y: FRET peptide, S2 series, X = Y [Abz-KXRSSKQ-EDDnp, X = Y] (Abz-KYRSSKQ-EDDnp)")
"rule met"
>>> assigned_label("Abz-KXRSSKQ-EDDnp, X = Q: FRET peptide, S2 series, X = Q [Abz-KXRSSKQ-EDDnp, X = Q] (Abz-KQRSSKQ-EDDnp)")
"rule not met"
>>> assigned_label("Abz-KLRSXKQ-EDDnp, X = F: FRET peptide, S2’ series, X = F ([2Abz]KLRSFKQ-EDDnp)")
"rule met"
>>> assigned_label("Abz-KLRXSKQ-EDDnp, X = Q: FRET peptide, S1’ series, X = Q ([2Abz]KLRQSKQ-EDDnp)")
"rule met"
>>> assigned_label("Abz-KLRXSKQ-EDDnp, X = I: FRET peptide, S1’ series, X = I ([2Abz]KLRISKQ-EDDnp)")
"rule not met"
>>> assigned_label("Abz-KLRXSKQ-EDDnp, X = F: FRET peptide, S1’ series, X = F ([2Abz]KLRFSKQ-EDDnp)")
"rule not met"

* * *

Reported kcat/Km values are given for each entry in this list.
SYSTEM UNDER TEST: Recombinant KLK2 (Homo sapiens, UniProt P20151)
Construct: made in house; host or cells: baculovirus-insect cell line system
ASSAY EXPLANATION: Hydrolysis of FRET peptides by recombinant KLK2 (kinetic parameters)
Type: biochemical
CONDITION CONTEXT: pH 8.0, 20 mM Tris–HCl, 1 M sodium citrate, 37 °C, KLK2 1.6 nM; three enzymatic reactions, standard errors 5% or less
Description: Obtained from a baculovirus-insect cell line system, purified, and activated as previously reported,[14] MUGB (4-methylumbelliferyl p-guanidino benzoate hydrochloride) was used for the spectrofluorimetric determination of molar concentrations of active KLK2.[15] KLK3 was obtained and assayed as previously reported.[3] All of the FRET peptides were obtained by solid-phase peptide synthesis. […]
Non-standard residues stand in square brackets, D forms with d. No end group written: not given here. *: point of attachment. EDDnp = O=[N+]([O-])c1ccc(NCCN*)c([N+](=O)[O-])c1; 2Abz = Nc1ccccc1C(=O)O
ENDPOINT NAME: kcat/Km (s^–1 mM^–1)

>>> measured_value("Abz-KXRSSKQ-EDDnp, X = G: FRET peptide, S2 series, X = G ([2Abz]KGRSSKQ-EDDnp)")
81
>>> measured_value("Abz-KLRSXKQ-EDDnp, X = V: FRET peptide, S2’ series, X = V ([2Abz]KLRSVKQ-EDDnp)")
3643
>>> measured_value("Abz-KLRXSKQ-EDDnp, X = H: FRET peptide, S1’ series, X = H (N-terminal Abz, C-terminal EDDnp; X = H)")
1860
>>> measured_value("Abz-KLRXSKQ-EDDnp, X = I: FRET peptide, S1’ series, X = I ([2Abz]KLRISKQ-EDDnp)")
4000
>>> measured_value("Abz-KLRSXKQ-EDDnp, X = E: FRET peptide, S2’ series, X = E ([2Abz]KLRSEKQ-EDDnp)")
888
>>> measured_value("Abz-KLRSXKQ-EDDnp, X = F: FRET peptide, S2’ series, X = F ([2Abz]KLRSFKQ-EDDnp)")
5167
>>> measured_value("Abz-KLRXSKQ-EDDnp, X = V: FRET peptide, S1’ series, X = V ([2Abz]KLRVSKQ-EDDnp)")
3682
>>> measured_value("Abz-XLRSSKQ-EDDnp, X = N: FRET peptide, S3 series, X = N (Abz-NLRSSKQ-EDDnp)")
3423
>>> measured_value("Abz-KXRSSKQ-EDDnp, X = I: FRET peptide, S2 series, X = I [Abz-KXRSSKQ-EDDnp, X = I] (Abz-KIRSSKQ-EDDnp)")
1044
>>> measured_value("Abz-XLRSSKQ-EDDnp, X = E: FRET peptide, S3 series, X = E (Abz-ELRSSKQ-EDDnp)")
974
